Target Of Assay: UniProt P35524
Sequence (P35524 whole entry): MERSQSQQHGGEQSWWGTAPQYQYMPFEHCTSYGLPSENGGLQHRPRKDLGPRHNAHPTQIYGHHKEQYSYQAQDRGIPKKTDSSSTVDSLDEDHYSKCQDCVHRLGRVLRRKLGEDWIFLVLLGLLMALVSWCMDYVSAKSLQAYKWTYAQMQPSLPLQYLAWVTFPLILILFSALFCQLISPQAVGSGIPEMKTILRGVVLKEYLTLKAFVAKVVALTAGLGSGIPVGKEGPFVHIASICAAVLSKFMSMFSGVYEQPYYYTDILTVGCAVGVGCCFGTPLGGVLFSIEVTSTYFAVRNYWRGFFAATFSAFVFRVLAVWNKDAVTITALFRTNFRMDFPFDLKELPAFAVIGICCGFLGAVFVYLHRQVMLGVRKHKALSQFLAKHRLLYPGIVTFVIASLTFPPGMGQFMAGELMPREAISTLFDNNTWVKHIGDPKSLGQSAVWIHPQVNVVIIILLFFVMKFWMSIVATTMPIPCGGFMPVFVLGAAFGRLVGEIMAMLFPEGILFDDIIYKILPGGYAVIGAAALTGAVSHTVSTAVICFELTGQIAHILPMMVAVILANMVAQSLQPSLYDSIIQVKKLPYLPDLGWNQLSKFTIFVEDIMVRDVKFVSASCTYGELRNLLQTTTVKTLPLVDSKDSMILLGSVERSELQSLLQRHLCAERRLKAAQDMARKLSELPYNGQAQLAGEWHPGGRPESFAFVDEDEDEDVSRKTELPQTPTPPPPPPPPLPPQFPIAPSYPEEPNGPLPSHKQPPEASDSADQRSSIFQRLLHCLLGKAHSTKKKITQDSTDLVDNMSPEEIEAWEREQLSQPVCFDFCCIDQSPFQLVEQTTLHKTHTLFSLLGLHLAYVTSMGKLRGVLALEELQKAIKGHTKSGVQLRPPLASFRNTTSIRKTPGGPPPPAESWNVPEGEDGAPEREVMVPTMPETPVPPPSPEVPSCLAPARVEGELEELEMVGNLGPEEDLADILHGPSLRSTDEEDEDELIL
Assay Text: Electrophysiological measurement (Gm, three micro-electrodes) of compound inhibition of CIC-1 in rat soleus muscle fibres
Test Parameters: Gm in whole rat soleus muscle fibres, approx. 30° C., four increasing compound concentrations
Outcome Measure: pEC50
# pEC50 is unitless: minus log10 of the molar concentration; print number only

Record excerpt, results attached:
INSERT INTO results (structure_as_smiles, measured_number) VALUES
  ('Cc1cc(Cl)c(OC(F)(F)F)c(C(=O)O)c1C', 5.77),
  ('COc1c(Cl)cc(C)c(Cl)c1C(=O)O', 5.24),
  ('COc1c(Br)cc(C)c(C)c1C(=O)O', 5.36);

# next compound below
Return reported pEC50. Input compound: `Cc1cc(Cl)c(OC(F)F)c(C(=O)O)c1C`
5.37
